Can you tell me IC50 for the items I'm about to list?
Tested on: Protein synthesis of S. aureus RN450
protocol text: microbe, parasite or virus in culture
Format: cell-based
setup conditions: Staphylococcus aureus, read-out: Protein synthesis IC50
All answers are understood in µg/mL, so give the number only.

stdin: // fetch IC50 given entry CN(C)c1cc(NC(=O)CNC(C)(C)C)c(O)c2c1C[C@H]1C[C@H]3[C@H](N(C)C)C(O)=C(C(N)=O)C(=O)[C@@]3(O)C(O)=C1C2=O [Tigecycline, reference compound]
stdout: 0.12

stdin: Identify IC50 associated with the compound CN(C)[C@@H]1C(O)=C(C(N)=O)C(=O)[C@@]2(O)C(O)=C3C(=O)c4c(O)ccc(C(=O)CN5CCCCC5)c4C[C@H]3C[C@@H]12
stdout: 0.33
